- System: H1299 (lung) cancer cells
- Experiment Description: In vitro cytotoxic activity MTT assay, H1299
- Assay type: cell-based
- Stated Conditions: Homo sapiens, NCI-H1299, 96 hours exposure, 50% inhibition of cell proliferation, read-out: Cytotoxicity activity IC50, H1299 (lung)
Property: pIC50
Reminder that pIC50 is minus the log10 of a molar concentration.

Summary: O=C(O)c1cc2nc(Nc3cccc(Cl)c3)c3ccncc3n2n1 , H1299 (lung) cancer cells, pIC50 = 5.72

---

- Assayed Target: recombinant human CK2 (RRββ-holoenzyme) (Homo sapiens)
- Sequence (P68400 whole entry): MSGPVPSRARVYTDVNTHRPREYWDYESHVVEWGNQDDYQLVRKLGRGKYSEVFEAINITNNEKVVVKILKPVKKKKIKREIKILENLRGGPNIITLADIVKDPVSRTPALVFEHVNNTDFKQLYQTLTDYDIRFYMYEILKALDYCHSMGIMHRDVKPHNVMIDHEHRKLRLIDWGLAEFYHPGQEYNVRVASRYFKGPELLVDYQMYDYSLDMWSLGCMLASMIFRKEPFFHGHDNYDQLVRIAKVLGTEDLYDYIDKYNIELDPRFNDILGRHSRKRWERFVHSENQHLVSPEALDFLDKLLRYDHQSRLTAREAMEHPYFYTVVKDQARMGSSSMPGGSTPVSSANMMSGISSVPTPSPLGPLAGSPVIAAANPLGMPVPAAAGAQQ
- Sequence (P67870 whole entry partner): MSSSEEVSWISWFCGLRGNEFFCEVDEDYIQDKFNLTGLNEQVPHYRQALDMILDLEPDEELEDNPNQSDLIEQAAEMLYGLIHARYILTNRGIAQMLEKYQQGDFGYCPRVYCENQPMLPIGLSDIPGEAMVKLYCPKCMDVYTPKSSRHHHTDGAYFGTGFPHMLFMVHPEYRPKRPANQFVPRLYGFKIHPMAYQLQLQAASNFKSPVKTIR
- Experiment Description: CK2 Kinase Assay (33P-ATP, substrate peptide RRRDDDSDDD)
- Stated Conditions: final ATP 15 μM, 10 min at 30° C., read-out: protein kinase CK2 inhibition IC50
Property: IC50 (µM)
Report only the number, with the unit µM understood.

For record O=C(O)c1cc2nc(Nc3cccc(Cl)c3)c3ccncc3n2n1 [Compound 1] the listed IC50 is 0.072
